# Target System: anti-H3K4me3 antibody ab8580
# Procedure Summary: peptide microarray binding signal (635 nm), min-max normalized on array (fraction of array maximum); higher = stronger binding
# Experimental Conditions: peptide region: Unmod H1 variant; binder concentration: 1:10,000 dilution
Measurement Type: peptide microarray binding signal
One number for each entry.

| Binder | peptide microarray binding signal |
| --- | --- |
| KKLKKATGASKKS [Unmod H1 variant K K L K K A T G A S K K S] | 0.000856 |
| SKGTLVQTKGTGA [Unmod H1 variant S K G T L V Q T K G T G A] | 0.0012 |
| KTVKPKKVAKSPA [Unmod H1 variant K T V K P K K V A K S P A] | 0.000799 |
| ASGSFKLNKKAAS [Unmod H1 variant A S G S F K L N K K A A S] | 0.000913 |
| TKTKATGASKKLK [Unmod H1 variant T K T K A T G A S K K L K] | 0.00103 |

Return reported peptide microarray binding signal values for all items listed beneath this line.
1. ERGGVSLAALKKA [Unmod H1 variant E R G G V S L A A L K K A]
2. KSPAKAKAVKPKA [Unmod H1 variant K S P A K A K A V K P K A]
3. AKKPAGAAKKPKK [Unmod H1 variant A K K P A G A A K K P K K]
4. ASAAPEKPLAGKK [Unmod H1 variant A S A A P E K P L A G K K]
5. ALAAAGYDVEKNN [Unmod H1 variant A L A A A G Y D V E K N N]
6. PAGPSVSELIVQA [Unmod H1 variant P A G P S V S E L I V Q A]

OUTPUT:
1. 0.00496
2. 0.000571
3. 0.00217
4. 0.00262
5. 0.00702
6. 0.00097

Each recorded value in this set is attributed to the supplement of paper PMC4022240.
